- Method: reversal of MRP1-mediated doxorubicin resistance, pilot screen, H69AR cells, doxorubicin co-treatment (AID 601)
- Test context: H69AR cells + 2 uM doxorubicin, CellTiter-Glo, 72 h; at 10 µM; stronger effect = higher value
# differential viability (reversal) listing for each entry below

Molecule: CC1CCN(S(=O)(=O)c2cn(CC(=O)N3CCN(C)CC3)c(=O)c3ccccc23)CC1
differential viability (reversal) [%]: 0.39
//
Molecule: O=C(O)Cn1cc2c(n1)CCCC2
differential viability (reversal) [%]: 3.98
//
Molecule: COc1ccc(CCNC(=O)c2ccncc2)cc1OC
differential viability (reversal) [%]: 12.2
//
Molecule: CC(C)(C)n1ncc2c(=O)n(CC(=O)c3ccccc3)cnc21
differential viability (reversal) [%]: -2.76
//
Molecule: Cn1c(SCC(N)=O)nnc1C1CCN(C(=O)NCc2ccccc2)CC1
differential viability (reversal) [%]: 0.425
//
Molecule: CCCCN(CCCC)CCCNC(=O)CC1Oc2ccc(C)cc2NC1=O (configuration not stated)
differential viability (reversal) [%]: 4.72
//
Molecule: CC(C)c1ccc(S(=O)(=O)N2CCN(C(=O)c3cccc(F)c3)CC2)cc1
differential viability (reversal) [%]: -8.65
//
Molecule: CCN(Cc1cc2ccccc2[nH]c1=O)S(=O)(=O)c1ccccc1
differential viability (reversal) [%]: -12.7
//
Molecule: Cc1cc(OCC(=O)N2CCCC2)cc(C)c1Cl
differential viability (reversal) [%]: 16.1
//
Molecule: Cc1cc(C(=O)CSCc2nnc3n(CCC(C)C)c(=O)c4ccccc4n23)c(C)n1C
differential viability (reversal) [%]: 0.59
//
Molecule: Cc1cccc(CS(=O)(=O)Cc2ccc(C(=O)NCC3CCCO3)o2)c1 (configuration not stated)
differential viability (reversal) [%]: -7.89
//
Molecule: CCSc1nc2c(c(=O)n1CC)SC(C)C2 (configuration not stated)
differential viability (reversal) [%]: 6.39
//
Molecule: Cc1ccc(S(=O)(=O)C2(C(=O)Nc3nccs3)CC2)cc1
differential viability (reversal) [%]: 5.59
//
Molecule: O=C(Oc1cccc2cccnc12)c1cccc(-n2cnnn2)c1
differential viability (reversal) [%]: 15.1
//
Molecule: CCC(c1nnnn1CCOC)N(Cc1ccc(C)cc1)Cc1cc2cc(OC)ccc2[nH]c1=O (configuration not stated)
differential viability (reversal) [%]: 7.76
//
Molecule: Cn1c(=O)c2c(nc(NCCCO)n2CCc2ccccc2)n(C)c1=O
differential viability (reversal) [%]: -2.35
//
Molecule: Cc1ccc(C(=O)C2COC(=O)C2)cc1 (configuration not stated)
differential viability (reversal) [%]: 3.12

###

- Study target: Receptor tyrosine-protein kinase erbB-2 (Homo sapiens) (UniProt P04626)
- Sequence (P04626 whole entry, looked up): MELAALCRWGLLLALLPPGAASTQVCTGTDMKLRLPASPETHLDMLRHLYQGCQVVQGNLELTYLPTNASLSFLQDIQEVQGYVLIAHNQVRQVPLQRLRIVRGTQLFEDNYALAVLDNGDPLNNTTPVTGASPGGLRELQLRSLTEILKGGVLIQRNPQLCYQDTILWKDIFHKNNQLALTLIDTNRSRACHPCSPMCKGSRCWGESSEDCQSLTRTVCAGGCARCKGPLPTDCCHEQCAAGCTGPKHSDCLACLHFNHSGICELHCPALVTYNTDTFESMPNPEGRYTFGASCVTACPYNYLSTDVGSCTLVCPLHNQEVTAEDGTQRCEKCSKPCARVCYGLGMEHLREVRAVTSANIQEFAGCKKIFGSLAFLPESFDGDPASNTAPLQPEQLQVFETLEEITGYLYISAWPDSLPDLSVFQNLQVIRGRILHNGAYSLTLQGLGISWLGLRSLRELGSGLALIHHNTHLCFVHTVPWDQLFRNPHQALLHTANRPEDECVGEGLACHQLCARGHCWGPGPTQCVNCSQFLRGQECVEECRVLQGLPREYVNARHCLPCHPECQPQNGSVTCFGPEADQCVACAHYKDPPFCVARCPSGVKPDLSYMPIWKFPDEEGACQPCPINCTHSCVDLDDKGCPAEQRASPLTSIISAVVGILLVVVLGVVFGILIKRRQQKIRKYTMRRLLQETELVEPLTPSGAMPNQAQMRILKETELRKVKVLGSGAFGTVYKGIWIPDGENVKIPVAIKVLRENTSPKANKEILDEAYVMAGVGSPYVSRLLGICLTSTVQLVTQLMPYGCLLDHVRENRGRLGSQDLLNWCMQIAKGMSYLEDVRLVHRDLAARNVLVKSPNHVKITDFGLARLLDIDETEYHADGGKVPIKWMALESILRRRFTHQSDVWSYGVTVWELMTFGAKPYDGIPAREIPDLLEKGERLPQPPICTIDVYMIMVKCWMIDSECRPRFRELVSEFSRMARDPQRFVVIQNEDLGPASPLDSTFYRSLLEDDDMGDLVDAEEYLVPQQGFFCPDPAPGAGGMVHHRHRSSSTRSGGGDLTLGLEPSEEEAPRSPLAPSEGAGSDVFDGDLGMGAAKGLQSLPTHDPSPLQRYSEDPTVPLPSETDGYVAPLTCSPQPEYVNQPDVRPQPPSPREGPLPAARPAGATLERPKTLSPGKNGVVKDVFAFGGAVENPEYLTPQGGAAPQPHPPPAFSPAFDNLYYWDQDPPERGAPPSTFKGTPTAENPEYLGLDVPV
- Method: reducers of endogenous Her2 protein level, primary screen, SKBR3 breast tumor cells, AlphaScreen, ATP viability (AID 461);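 for Her2 level: lower value means less Her2 protein in the cells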;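 for viability: percent of carrier control wells set as 100% viability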
- Test context: 18-24 h, at 10 µM, stronger effect = lower value
Please respond with true (1) when measured Her2 level is strictly beneath 90%, and with false (0) in all other cases.

Molecule: COc1ccccc1NC(=O)c1nnn(CC(=O)Nc2ccccc2)c1N
Class name: true (1)
--
Molecule: COc1ccc(C2=NOC(C(=O)NCCCN3CCOCC3)C2)cc1 (stereo not drawn)
Class name: false (0)
--
Molecule: O=C(CCn1c(=O)sc2ccccc21)NC1=NCCS1
Class name: false (0)
--
Molecule: CC1=C(C(N)=O)C(c2cccnc2)n2nc(SCc3ccccc3Cl)nc2N1 (stereo not drawn)
Class name: false (0)
--
Molecule: CCc1nc(N)c(C#N)c(-c2ccncc2)c1C
Class name: false (0)
--
Molecule: Cc1ccc(C(=O)Nc2nc3c(s2)CCCC3)o1
Class name: true (1)
--
Molecule: O=C(NC1CCCC1)c1ccc(S(=O)(=O)N2CCCC2)cc1
Class name: false (0)
--
Molecule: O=C(CCn1nc(-c2ccccc2)ccc1=O)N1CCCC1
Class name: false (0)
--
Molecule: COc1ccccc1OCC(=O)NCC1CCCCC1
Class name: false (0)
--
Molecule: Cn1c(SC/C=C/c2ccccc2)nnc1-c1cnccn1
Class name: false (0)
--
Molecule: CCOC(=O)C1CCN(c2c(NCCCN(CC)c3ccccc3)c(=O)c2=O)CC1
Class name: true (1)
--
Molecule: CCCN1C2CCCC1CC(NC(=O)Nc1cccc(C(C)=O)c1)C2 (stereo not drawn)
Class name: true (1)
--
Molecule: CCSc1nnc(-c2cccs2)o1
Class name: false (0)
--
Molecule: Cn1cnnc1SCC(=O)Nc1sc2c(c1C#N)CCCCC2
Class name: false (0)
--
Molecule: O=c1cc(CN2CCN(c3ccc(F)cc3)CC2)nc2sccn12
Class name: false (0)
--
Molecule: O=S(=O)(c1ccc2ccccc2c1)N(CC(O)CN1CCOCC1)c1ccccc1 (stereo not drawn)
Class name: true (1)
--
Molecule: Cc1cc(S(=O)(=O)NC2CCCCC2)ccc1OCC(=O)NCc1ccccn1
Class name: true (1)
--
Molecule: COc1cc(-c2noc(-c3cccc(Cl)c3)n2)cc(OC)c1OC
Class name: true (1)
--
Molecule: N#Cc1cc2sc3nnc(-c4ccncc4)n3c2cc1C#N
Class name: true (1)
--
Molecule: COc1ccc2cc(C(=O)NCc3ccco3)c(=Nc3ccc(C(=O)O)cc3)oc2c1
Class name: true (1)
--
Molecule: CC1CCC2C(C1)c1sc(=O)[nH]c1SC2(C)C (stereo not drawn)
Class name: false (0)
--
Molecule: COc1cc(S(=O)(=O)n2nnc3ccccc32)c(OC)cc1Cl
Class name: true (1)
--
Molecule: Cc1cc(=O)n(-c2ccc3ccccc3n2)[nH]1
Class name: false (0)
--
Molecule: CCOC(=O)C1CCN(Cc2c(O)ccc3ccccc23)CC1
Class name: false (0)
--
Molecule: C/C(=C(\C#N)C(=O)NCCCN1CCOCC1)N(C)C
Class name: false (0)
--
Molecule: Nc1nnc(-c2cn(-c3ccccc3)nc2-c2ccccc2)o1
Class name: false (0)
--
Molecule: CCN(CC)S(=O)(=O)c1ccc(Cl)c(C(=O)OC)c1
Class name: false (0)
--
Molecule: CC(C)CCNc1cc(=O)n(C)c(=O)n1C
Class name: false (0)
--
Molecule: Cc1cc2oc(=O)cc(C)c2c(=O)o1
Class name: false (0)

###

- Method: reducers of endogenous Her2 protein level, primary screen, SKBR3 breast tumor cells, AlphaScreen, ATP viability (AID 461);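 for viability: percent of carrier control wells set as 100% viability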
- Test context: 18-24 h, measured here: SKBR3 viability, ATP luminescence, at 10 µM
# viability listing for each entry below
Reported metric: viability (%)

Compound: O=C(CSc1nc2ncccc2[nH]1)Nc1ccc2c(c1)OCCO2
Recorded value: 108

Compound: CCn1nc(C)c(NC(=O)c2cc(Br)ccc2Cl)c1C
Recorded value: 84.5

Compound: COc1ccc(CNC(=O)CN(C(=O)c2ccc(CN3CCOCC3)o2)C2CCCC2)cc1
Recorded value: 124

Compound: CC(C)C1C2=C(CC(C)(C)CC2=O)ON1c1ccccc1 (stereo not given)
Recorded value: 90

Compound: CN(C)S(=O)(=O)c1ccc(C(=O)Nc2ccccc2C(=O)O)cc1
Recorded value: 102

Compound: CN1CCN(C(c2cccc(C(F)(F)F)c2)c2nnnn2C(C)(C)C)CC1 (stereo not given)
Recorded value: 94.5

Compound: Cc1nnc(SCC(=O)Nc2ccc(Br)cn2)[nH]c1=O
Recorded value: 118

Compound: Nc1nnn(Cc2ccccc2)n1
Recorded value: 93.5

Compound: CCN1CCN(CCCNC(=O)C2c3ccccc3C(=O)N(C)C2c2ccc(OC)cc2)CC1 (stereo not given)
Recorded value: 102

Compound: CCOC(=O)CN(C(=O)CSc1nnc(-c2ccncc2)n1CCCN(C)C)c1ccccc1
Recorded value: 107

Compound: COCC(=O)N(Cc1ccc(OC)cc1)Cc1nc2ccccc2c(=O)[nH]1
Recorded value: 126

Compound: COC(=O)c1ccccc1NC(=O)c1cc(-c2ccc(OC)c(OC)c2)on1
Recorded value: 99

Compound: O=C(CCCn1c(=S)[nH]c2ccccc2c1=O)N1CCCCC1
Recorded value: 86

Compound: Cc1ccc(S(=O)(=O)C2(C(=O)Nc3cccnc3)CC2)cc1
Recorded value: 92.5

Compound: O=C(OCC(=O)N1CCc2ccccc21)C1=COCCO1
Recorded value: 89.5

Compound: CCOC(=O)CSc1nc2cccnc2n1-c1ccc(F)cc1
Recorded value: 108

Compound: CC(C)(C)NCc1cc2ccccc2[nH]c1=O
Recorded value: 90

Compound: O=C(CN1CCOCC1)N1CCN(C(=O)CN2CCOCC2)CC1
Recorded value: 102

Compound: COC(=O)C(C)Oc1ccc2c3c(c(=O)oc2c1)CCCCC3 (stereo not given)
Recorded value: 90

Compound: CCCOc1nc(N)c(C#N)c(-c2ccccc2F)c1C#N
Recorded value: 98.5

Compound: CCOC(=O)/C=C1\SCC(=O)N1Cc1ccc(Br)cc1
Recorded value: 112

Compound: COc1ccc2cc(C(=O)NCc3ccco3)c(=Nc3ccc(C(=O)O)cc3)oc2c1
Recorded value: 68

Compound: CCn1c(=O)n(CC(=O)Nc2cc(OC)ccc2OC)c(=O)c2ccccc21
Recorded value: 110

Compound: CC1=C(C)C(=O)NC(Nc2nc(C)c3cc(C)cc(C)c3n2)N1 (stereo not given)
Recorded value: 120

Compound: C=CCn1c2ccccc2c2nnc(SCC(=O)NC(C(=O)OC)C(C)C)nc21 (stereo not given)
Recorded value: 112

Compound: CCOC(=O)c1c(NC(=O)c2ccn(CC)n2)sc2c1CCCC2
Recorded value: 88

Compound: CCOc1ccccc1NC(=O)CCN1CCN(S(=O)(=O)c2ccc(Br)cc2)CC1
Recorded value: 119

Compound: O=C(c1cc2cc(Cl)cc(Cl)c2oc1=O)N1CCOCC1
Recorded value: 76

Compound: COc1ccc(C(=O)NCCSc2ccccn2)cc1
Recorded value: 97

Compound: COC(=O)c1cc2oc(C)cc2n1CC(=O)Nc1ccc(C)c(C)c1
Recorded value: 85.5

Compound: CC1Cc2nc(SCC(=O)Nc3ccc(F)cc3F)n(C)c(=O)c2S1 (stereo not given)
Recorded value: 90

Compound: CSc1nc(N2CCOCC2)c2ccccc2n1
Recorded value: 110

Compound: CCSc1nnc(NC(=O)CCNS(=O)(=O)c2cc(Br)cnc2N)s1
Recorded value: 79.5

Compound: CCOC(=O)C1CCN(c2c(NCCCN(CC)c3ccccc3)c(=O)c2=O)CC1
Recorded value: 83.5

Compound: c1ccc(CCNc2ccc3nncn3n2)cc1
Recorded value: 82
